B1: SLC25A39 (parent)
chain: LTSDLYAPMVAGALARLGTVTVIS

variants of: B1; assay: protein stability index of a GFP-peptide fusion (GPS, HEK-293T) (PSI 1-6); higher = more stable; settings: c terminus: a fixed tail appended;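 note: lentivirally expressed fusions sorted by FACS into six bins by GFP to DsRed ratio, PSI derived from sequencing read proportions per bin multiplied by bin number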
Attribute Measured: protein stability index

>>> df
   mutation_spec  result_value
0           V20G          1.99
1            P8T          3.06
2            A7N          1.97
3            A7V          1.96
